# Tested target: T1, 4H3381-AA
# T1 chain: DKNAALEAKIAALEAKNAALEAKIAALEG
# Test details: two-hybrid library CCmax;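 also: natural log of median RNA to DNA barcode read ratio; higher means stronger binding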
# Conditions used: mean of both orientations
# reported interaction score; entries follow
Please give the numeric answer without any surrounding text.

Guide cases for interaction score, answers given:
Query: Value lookup for interaction score; key = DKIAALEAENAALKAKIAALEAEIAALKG [4H2274-AA]
Result: -1.35

Query: Could you do the same for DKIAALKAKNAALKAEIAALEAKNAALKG [4H3016-AA] , please?
Result: -1.11

Query: Now give it for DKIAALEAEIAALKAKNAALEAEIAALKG [4H2162-AA] too.
Result: -1.58

Query: Continue with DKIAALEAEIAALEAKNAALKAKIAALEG [4H2109-AA]
Result: -0.283

Query: Can you handle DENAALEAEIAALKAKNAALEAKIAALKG [4H1142-AA] next?
Result: -0.986

Next:
Query: // query interaction score value for entry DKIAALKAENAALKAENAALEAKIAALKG [4H2774-AA]
Result: -1.61

Query: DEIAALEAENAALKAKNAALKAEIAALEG [4H249-AA] ?
Result: -1.79

Query: What do you get for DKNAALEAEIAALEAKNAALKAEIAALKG [4H3130-AA] ?
Result: -1.07

Query: What would you report for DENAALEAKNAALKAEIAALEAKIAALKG [4H1478-AA] ?
Result: -1.47

Query: Now the same for DKIAALKAEIAALEAENAALKAKNAALKG [4H2592-AA]
Result: -1.72

Query: And for DKIAALKAEIAALEAKNAALEAENAALEG [4H2611-AA] ?
Result: -1.73

Query: And what about the binder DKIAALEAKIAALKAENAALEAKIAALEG [4H2389-AA] ?
Result: -0.842

Query: For DKIAALKAENAALEAKIAALEAKIAALEG [4H2725-AA] then?
Result: -1.94

Query: And then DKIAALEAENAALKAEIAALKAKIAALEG [4H2253-AA] , what is it?
Result: -1.4

Query: # repeat for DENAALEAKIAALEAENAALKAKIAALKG [4H1310-AA]
Result: -1.23
